Molecular target: Sphingosine 1-phosphate receptor 4 (Homo sapiens)
Assay: activators of human S1P4 receptor – cell-based, primary screen (AID 1509)
Conditions: S1P4-expressing cell line, agonist reporter assay; at 4.98 µM
In all, about 220,000 compounds went through this assay and about 770 (0.35%) were called active. No stated cut-off is given here; in the data, active means activation above about 11%; inactive means the rest. What follows is part of a selection rich in actives, with near analogues and random picks from the rest.
Return exactly one item of active, inactive

The following compounds have reported results that may help.
O=c1cc(N2CCCCC2)c(-c2ccccc2)nn1Cc1cccc(F)c1; inactive
C/C(CCC(=O)OC[C@H]1O[C@H](C#Cc2ccccc2)C=C[C@@H]1Oc1ccc(C)cc1)=N\OC[C@@H](O)[C@H]1O[C@@H]2OC(C)(C)O[C@@H]2[C@H]1O; inactive
NC(=O)COC(=O)c1sc2cc(F)ccc2c1Cl; inactive
Cc1ccc2c(c1)c1ncn(Cc3ccc(F)cc3)c(=O)c1n2C; inactive

--- query ---
Query: Answer briefly: the call reported for O=C(CSc1ccc(-c2ccc(F)cc2)nn1)Nc1ccc2c(c1)OCCO2 in this assay.
Response: active
